Hello, the source for this data is ChEMBL document CHEMBL3124769, in case you need it.

Experiment: Cytotoxicity against human Bel7404 cells after 48 hrs by MTT assay
Type: functional, cell-based
Conditions: BEL-7404, 48 h
ASSAY_METRIC: IC50
Please format your answer as a value with the unit trailing.

Request: Dear colleague, I am looking for the recorded IC50 of the following compound: CC(C)c1ccc2c(c1)CC[C@H]1[C@](C)(C(=O)N[C@H](Cc3ccccc3)C(=O)Nc3cccc(Br)c3)CCC[C@]21C
Response: 19.9 µM

Request: Item CC(C)c1ccc2c(c1)CC[C@H]1[C@](C)(C(=O)N[C@H](Cc3ccccc3)C(=O)Nc3ccc(Br)cc3)CCC[C@]21C has what recorded IC50?
Response: 16.9 µM

Request: Look up IC50 for this compound: Cc1cccc(NC(=O)[C@@H](Cc2ccccc2)NC(=O)[C@]2(C)CCC[C@]3(C)c4ccc(C(C)C)cc4CC[C@@H]23)c1
Response: 34.6 µM

Request: Consider the compound shown here: Cc1ccc(NC(=O)[C@@H](Cc2ccccc2)NC(=O)[C@]2(C)CCC[C@]3(C)c4ccc(C(C)C)cc4CC[C@@H]23)cc1Cl What is its recorded IC50?
Response: 41.2 µM

----------
Task for the reader: assign each of the following compounds its reported IC50.
Assay: Cytotoxicity against human Bel7404 cells after 48 hrs by MTT assay
Assay type: functional, cell-based
Settings: BEL-7404, 48 h
Quick reminder: number only, in µM, skip the unit.

Request: What does the record list as IC50 for CC(C)c1ccc2c(c1)CC[C@H]1[C@](C)(C(=O)O)CCC[C@]21C [DEHYDROABIETIC ACID] ?
Response: 34.7

Request: Need IC50 of COc1cccc(NC(=O)[C@@H](Cc2ccccc2)NC(=O)[C@]2(C)CCC[C@]3(C)c4ccc(C(C)C)cc4CC[C@@H]23)c1 , thanks.
Response: 38.5

Request: // query IC50 value for entry CC(C)c1ccc2c(c1)CC[C@H]1[C@](C)(C(=O)N[C@H](Cc3ccccc3)C(=O)Nc3ccc(C(F)(F)F)cc3)CCC[C@]21C
Response: 36.1

Request: Field request: IC50 | item: CC(C)c1ccc2c(c1)CC[C@H]1[C@](C)(C(=O)N[C@H](Cc3ccccc3)C(=O)Nc3ccc(Cl)c(Cl)c3)CCC[C@]21C
Response: 44.7

Request: // lookup IC50 for COc1ccc(NC(=O)[C@@H](Cc2ccccc2)NC(=O)[C@]2(C)CCC[C@]3(C)c4ccc(C(C)C)cc4CC[C@@H]23)cc1
Response: 15.3

Request: Which IC50 reading was recorded for the compound CC(C)c1ccc2c(c1)CC[C@H]1[C@](C)(C(=O)N[C@H](Cc3ccccc3)C(=O)Nc3cccc(F)c3)CCC[C@]21C ?
Response: 27.4

Request: Need IC50 of O=c1[nH]cc(F)c(=O)[nH]1 , thanks.
Response: 26.8

Request: Which IC50 value is on record for CC(C)c1ccc2c(c1)CC[C@H]1[C@](C)(C(=O)N[C@H](Cc3ccccc3)C(=O)Nc3cccc(Cl)c3)CCC[C@]21C ?
Response: 23.8

Request: Form field: reported IC50 of CC(C)c1ccc2c(c1)CC[C@H]1[C@](C)(C(=O)N[C@H](Cc3ccccc3)C(=O)Nc3cccc([N+](=O)[O-])c3)CCC[C@]21C
Response: 27.1

Request: Given CC(C)c1ccc2c(c1)CC[C@H]1[C@](C)(C(=O)N[C@H](Cc3ccccc3)C(=O)Nc3ccc(Cl)cc3)CCC[C@]21C , state its recorded IC50.
Response: 33.6

Request: Look up IC50: CC(C)c1ccc2c(c1)CC[C@H]1[C@](C)(C(=O)N[C@H](Cc3ccccc3)C(=O)Nc3ccccc3)CCC[C@]21C
Response: 16.7

Request: If you can, please state the reported IC50 value of CC(C)c1ccc2c(c1)CC[C@H]1[C@](C)(C(=O)N[C@H](Cc3ccccc3)C(=O)Nc3ccc(F)cc3)CCC[C@]21C .
Response: 21

Request: Bench note: what IC50 did CC(C)c1ccc2c(c1)CC[C@H]1[C@](C)(C(=O)N[C@H](Cc3ccccc3)C(=O)Nc3cc(Cl)ccc3Cl)CCC[C@]21C show?
Response: 31

Request: Can you share its IC50? I mean this compound: Cc1ccc(NC(=O)[C@@H](Cc2ccccc2)NC(=O)[C@]2(C)CCC[C@]3(C)c4ccc(C(C)C)cc4CC[C@@H]23)cc1C
Response: 48.2
